tgt: E. coli ACCase (Escherichia coli, UniProt P0A9Q5+P0ABD5+P0ABD8+P24182)
test-parameters: E. coli ACCase; dose-dependent studies, FIG. 4

- chemical-string: "O=C([O-])CCO.[Na+]"
  effect of salt on ACCase activity: "inhibitory effects"
- chemical-string: "[Cl-].[Na+]"
  effect of salt on ACCase activity: "inhibitory effects"
- chemical-string: "N.O=C(O)CCO"
  effect of salt on ACCase activity: "significantly inhibited"
- chemical-string: "Cl.N"
  effect of salt on ACCase activity: "significantly inhibited"

The origin of these recorded values is patent US20150057465A1.
